# assay.target: human Nav1.8 (Homo sapiens, UniProt Q9Y5Y9)
# Sequence (Q9Y5Y9 whole entry): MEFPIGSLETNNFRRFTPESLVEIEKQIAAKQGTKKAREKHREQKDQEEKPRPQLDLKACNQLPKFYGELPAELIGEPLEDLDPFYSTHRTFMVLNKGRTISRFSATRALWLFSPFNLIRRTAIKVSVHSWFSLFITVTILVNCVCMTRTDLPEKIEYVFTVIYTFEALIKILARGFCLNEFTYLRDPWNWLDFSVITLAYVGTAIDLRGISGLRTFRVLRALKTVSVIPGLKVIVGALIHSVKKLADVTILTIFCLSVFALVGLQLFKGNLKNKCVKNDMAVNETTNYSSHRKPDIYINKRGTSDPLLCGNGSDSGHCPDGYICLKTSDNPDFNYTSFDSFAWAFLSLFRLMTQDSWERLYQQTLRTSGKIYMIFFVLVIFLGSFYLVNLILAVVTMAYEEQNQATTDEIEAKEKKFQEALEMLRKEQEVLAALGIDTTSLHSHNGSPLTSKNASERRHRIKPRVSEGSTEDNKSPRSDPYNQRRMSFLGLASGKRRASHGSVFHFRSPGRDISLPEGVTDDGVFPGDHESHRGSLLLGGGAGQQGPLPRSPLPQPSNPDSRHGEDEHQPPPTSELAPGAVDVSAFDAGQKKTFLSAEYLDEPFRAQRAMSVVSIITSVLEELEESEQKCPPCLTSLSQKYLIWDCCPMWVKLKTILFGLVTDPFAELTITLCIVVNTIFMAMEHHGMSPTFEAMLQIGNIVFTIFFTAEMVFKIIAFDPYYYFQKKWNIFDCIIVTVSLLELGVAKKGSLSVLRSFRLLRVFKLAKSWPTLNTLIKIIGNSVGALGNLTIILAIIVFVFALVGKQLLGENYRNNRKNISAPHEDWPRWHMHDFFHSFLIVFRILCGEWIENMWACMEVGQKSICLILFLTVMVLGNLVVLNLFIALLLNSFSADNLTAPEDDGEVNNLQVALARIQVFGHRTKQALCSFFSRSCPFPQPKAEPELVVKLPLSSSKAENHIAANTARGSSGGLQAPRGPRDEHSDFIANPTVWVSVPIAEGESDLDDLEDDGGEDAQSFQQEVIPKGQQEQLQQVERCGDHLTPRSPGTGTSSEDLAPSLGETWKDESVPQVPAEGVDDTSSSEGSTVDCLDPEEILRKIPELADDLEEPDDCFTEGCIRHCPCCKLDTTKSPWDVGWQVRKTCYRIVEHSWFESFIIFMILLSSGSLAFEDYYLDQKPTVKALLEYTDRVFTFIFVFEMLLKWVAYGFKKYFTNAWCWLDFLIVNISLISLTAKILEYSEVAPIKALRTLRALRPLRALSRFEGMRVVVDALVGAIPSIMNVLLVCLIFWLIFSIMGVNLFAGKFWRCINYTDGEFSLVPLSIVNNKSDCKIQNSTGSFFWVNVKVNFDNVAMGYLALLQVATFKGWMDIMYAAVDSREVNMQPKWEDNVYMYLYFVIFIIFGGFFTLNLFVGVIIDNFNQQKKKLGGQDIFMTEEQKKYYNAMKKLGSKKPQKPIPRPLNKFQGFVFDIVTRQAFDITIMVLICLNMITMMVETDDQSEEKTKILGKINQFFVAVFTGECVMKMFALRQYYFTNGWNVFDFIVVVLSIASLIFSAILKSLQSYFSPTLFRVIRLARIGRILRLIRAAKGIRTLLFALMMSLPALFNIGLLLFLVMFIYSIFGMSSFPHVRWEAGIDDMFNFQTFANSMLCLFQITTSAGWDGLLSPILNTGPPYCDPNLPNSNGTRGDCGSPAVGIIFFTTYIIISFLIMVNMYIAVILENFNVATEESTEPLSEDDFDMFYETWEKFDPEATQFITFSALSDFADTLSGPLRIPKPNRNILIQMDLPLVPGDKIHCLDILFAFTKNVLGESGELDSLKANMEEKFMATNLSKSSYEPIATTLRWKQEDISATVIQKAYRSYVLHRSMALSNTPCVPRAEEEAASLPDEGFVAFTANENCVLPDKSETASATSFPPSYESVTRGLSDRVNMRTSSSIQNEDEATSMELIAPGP
# test.name: SyncroPatch384PE assay (automated patch clamp)
# Format: cell-based
# experimental.conditions: inactivated state block (P2 measurement), human Nav1.8/b3 CHO cells, read-out: P2 IC50
measured.quantity: IC50

// below: answered molecules
molecule: Cc1c(C(F)(F)F)cnc(N2CCCC(F)(F)CC2)c1C(=O)Nc1cccc([S@](C)(=N)=O)c1
measured.quantity: IC50
measured.value: ≤ 5 nM

molecule: Cc1c(-c2cnn(C)c2)cnc(N2CCCC(F)(F)CC2)c1C(=O)Nc1ccnc([S@](C)(=N)=O)c1
measured.quantity: IC50
measured.value: 100 to 200 nM

molecule: Cc1c(-c2cnn(C(F)F)c2)cnc(N2CCCC(F)(F)CC2)c1C(=O)Nc1cccc([S@](C)(=N)=O)c1
measured.quantity: IC50
measured.value: 5 to 50 nM

[ask] Endpoint output: IC50 of C[S@@](=N)(=O)c1cccc(NC(=O)c2cc(Cl)c(C(F)(F)F)cc2N2CCC(C(F)(F)F)CC2)c1 . Value?
[reply] ≤ 5 nM

[ask] How about this molecule: Cc1c(C(=O)Nc2cccc([S@@](C)(=O)=NC(=O)[C@@H]3CCCN3)c2)c(N2CCCC(F)(F)CC2)nc(C(F)(F)F)c1-c1cnn(C)c1
[reply] ≤ 5 nM
